tgt: T1, endogenous p97 (human, UniProt P55072 2-806)
T1 construct: also called VCP
test: Flag co-IP, 293 cells, MudPIT MS
quantityKind: sequence count
Numbers only.

Ask: Which value of sequence count has been reported for Flag-SAKS1 (other, UniProt Q04323 1-297, looked up, also called RDB 2150; not shown: N-terminal Flag tag) MAELTALESLIEMGFPRGRAEKALALTGNQGIEAAMDWLMEHEDDPDVDEPLETPLGHILGREPTSSEQGGLEGSGSAAGEGKPALSEEERQEQTKRMLELVAQKQREREEREEREALERERQRRRQGQELSAARQRLQEDEMRRAAEERRREKAEELAARQRVREKIERDKAERAKKYGGSVGSQPPPVAPEPGPVPSSPSQEPPTKREYDQCRIQVRLPDGTSLTQTFRAREQLAAVRLYVELHRGEELGGGQDPVQLLSGFPRRAFSEADMERPLQELGLVPSAVLIVAKKCPS in the records?
Reply: 68
